Source listed as ChEMBL document CHEMBL1641524.

Target: C-X-C chemokine receptor type 4 (Homo sapiens, UniProt P61073)
Sequence (P61073 whole entry): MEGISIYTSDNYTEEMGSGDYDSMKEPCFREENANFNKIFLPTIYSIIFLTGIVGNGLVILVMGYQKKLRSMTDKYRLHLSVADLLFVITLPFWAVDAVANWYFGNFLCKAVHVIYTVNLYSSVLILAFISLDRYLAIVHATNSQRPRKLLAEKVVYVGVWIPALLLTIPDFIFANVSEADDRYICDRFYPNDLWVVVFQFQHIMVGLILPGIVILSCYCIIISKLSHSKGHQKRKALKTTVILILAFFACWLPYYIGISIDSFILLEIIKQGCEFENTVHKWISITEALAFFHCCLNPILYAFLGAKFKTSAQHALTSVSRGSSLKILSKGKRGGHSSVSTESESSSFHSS
Assay: Displacement of [125I]SDF-1 from CXCR4 in human CEM-CCRF cells expressing CD4 by liquid scintillation counting
Format: cell-based
Would you kindly list pIC50 for each of these molecules?
Answers are plain numbers, as −log10 of the molar value.

Previously resolved entries follow.
In [3]: df
Out[3]:
                                inputsmiles  assaymetric  recordedresult
0  NCc1cocc1N(Cc1nc2ccccc2[nH]1)[C@H]1CCCc2cccnc21        pIC50            7.35
1  NCc1cscc1N(Cc1nc2ccccc2[nH]1)[C@H]1CCCc2cccnc21        pIC50            7.05

Would you mind telling me what pIC50 value was observed for NCc1ncccc1CN(Cc1nc2ccccc2[nH]1)[C@H]1CCCc2cccnc21 ?
7.70

###

Test system: Human immunodeficiency virus 1
Test: Antiviral activity against X4 tropic HIV1 NL4.3 infected in human MT4 cells expressing CD4 and CXCR4 assessed as inhibition of virus-induced cytopathicity
Assay type: functional, organism-based
Settings: Human immunodeficiency virus 1, NL4.3, MT4
assayMetric: IC50 (nM)
Give bare numbers, in nM.

Guide cases for IC50, answers given:
>>> print(df.to_string())
                                   compound  recordedresult
0  COCc1ccc(CN(Cc2nc3ccccc3[nH]2)C2CCCc3cccnc32)c(CN)c1 (configuration not stated)              20
1  NCc1cscc1N(Cc1nc2ccccc2[nH]1)[C@H]1CCCc2cccnc21            0.99
2  CO/N=C/c1ccc(CN(Cc2nc3ccccc3[nH]2)C2CCCc3cccnc32)c(CN)c1 (configuration not stated)              22

// each compound listed below needs its IC50
1. NCc1ccc(CN(Cc2nc3ccccc3[nH]2)C2CCCc3cccnc32)c(CN)c1 (configuration not stated)
2. NCc1ncccc1CN(Cc1nc2ccccc2[nH]1)C1CCCc2cccnc21 (configuration not stated)

1. 2
2. 21

Batch lookup, IC50 per entry.
1. NCc1cc(C(F)(F)F)ccc1CN(Cc1nc2ccccc2[nH]1)C1CCCc2cccnc21 (configuration not stated)
2. NCc1ncccc1CN(Cc1nc2ccccc2[nH]1)[C@H]1CCCc2cccnc21
3. NCc1ocnc1CN(Cc1nc2ccccc2[nH]1)C1CCCc2cccnc21 (configuration not stated)
4. NCc1occc1CN(Cc1nc2ccccc2[nH]1)C1CCCc2cccnc21 (configuration not stated)
5. NCc1ccncc1CN(Cc1nc2ccccc2[nH]1)C1CCCc2cccnc21 (configuration not stated)

[104, 4.2, 2830, 8, 124]

Below are 2 compounds. Give each one its IC50.
1. NCc1cocc1N(Cc1nc2ccccc2[nH]1)[C@H]1CCCc2cccnc21
2. NCc1cocc1N(Cc1nc2ccccc2[nH]1)C1CCCc2cccnc21 (configuration not stated)

[0.31, 10.9]

Go through the list and state IC50 for each entry.
1. NCc1cc(CO)ccc1CN(Cc1nc2ccccc2[nH]1)C1CCCc2cccnc21 (configuration not stated)
2. NCc1cscc1N(Cc1nc2ccccc2[nH]1)C1CCCc2cccnc21 (configuration not stated)
3. NCc1nc(CN(Cc2nc3ccccc3[nH]2)C2CCCc3cccnc32)co1 (configuration not stated)
4. NCc1ccc(CN(Cc2nc3ccccc3[nH]2)C2CCCc3cccnc32)o1 (configuration not stated)

17
103
20100
3570

###

Hi there, I'd appreciate the recorded Vd for every entry that follows.
Assay: Volume of distribution in dog at 5 umol/kg, iv
Assay type: ADME, organism-based, Canis lupus familiaris
Conditions: in vivo
One number for each entry, in L/kg.

Some solved entries appear below for comparison.
                                inputsmiles  recordedresult
0  NCc1ncccc1CN(Cc1nc2ccccc2[nH]1)[C@H]1CCCc2cccnc21             2.6
1  NCc1cscc1N(Cc1nc2ccccc2[nH]1)[C@H]1CCCc2cccnc21             2.2

From here, focus on the item given below.
Which value of Vd has been reported for NCc1cocc1N(Cc1nc2ccccc2[nH]1)[C@H]1CCCc2cccnc21 in the records?
0.7

###

I'd appreciate it if you could supply pIC50 values for the items below.
Biological target: C-X-C chemokine receptor type 4 (Homo sapiens, UniProt P61073)
Experiment: Antagonist activity at CXCR4 in human CEM-CCRF cells expressing CD4 assessed as inhibition of SDF-1-induced Ca2+ signaling
Format: functional, cell-based
Numbers only, as −log10 of the molar value.

Sample records with pIC50:
>>> df
                                   compound                             targetofassay  recordedresult
0  NCc1cc(CO)ccc1CN(Cc1nc2ccccc2[nH]1)C1CCCc2cccnc21 (centres undefined)  C-X-C chemokine receptor type 4 (Homo sapiens, UniProt P61073)            7.96
1  COCc1ccc(CN(Cc2nc3ccccc3[nH]2)C2CCCc3cccnc32)c(CN)c1 (centres undefined)  C-X-C chemokine receptor type 4 (Homo sapiens, UniProt P61073)            7.68

For each listed entry, give its pIC50.
1. COc1ccc(CN(Cc2nc3ccccc3[nH]2)C2CCCc3cccnc32)c(CN)c1 (centres undefined)
2. NCc1ccc(CN(Cc2nc3ccccc3[nH]2)C2CCCc3cccnc32)c(CN)c1 (centres undefined)
3. COC(=O)c1ccc(CN(Cc2nc3ccccc3[nH]2)C2CCCc3cccnc32)c(CN)c1 (centres undefined)
4. CO/N=C/c1ccc(CN(Cc2nc3ccccc3[nH]2)C2CCCc3cccnc32)c(CN)c1 (centres undefined)

8.30
8.00
7.41
8.30

Look at each compound and report its pIC50.
1. NCc1cc(F)ccc1CN(Cc1nc2ccccc2[nH]1)C1CCCc2cccnc21 (centres undefined)
2. NCc1ncccc1CN(Cc1nc2ccccc2[nH]1)C1CCCc2cccnc21 (centres undefined)

1: 6.66; 2: 7.68

Please give pIC50 for each item listed below.
1. NCc1occc1CN(Cc1nc2ccccc2[nH]1)C1CCCc2cccnc21 (centres undefined)
2. NCc1ccccc1CN(Cc1nc2ccccc2[nH]1)C1CCCc2cccnc21 (centres undefined)
3. NCc1cscc1N(Cc1nc2ccccc2[nH]1)C1CCCc2cccnc21 (centres undefined)
4. NCc1sccc1CN(Cc1nc2ccccc2[nH]1)C1CCCc2cccnc21 (centres undefined)
5. NCc1cocc1N(Cc1nc2ccccc2[nH]1)C1CCCc2cccnc21 (centres undefined)
6. NCc1cc(C(N)=O)ccc1CN(Cc1nc2ccccc2[nH]1)C1CCCc2cccnc21 (centres undefined)
7. NCc1ccoc1CN(Cc1nc2ccccc2[nH]1)C1CCCc2cccnc21 (centres undefined)

1: 7.68; 2: 7.55; 3: 7.89; 4: 7.22; 5: 7.60; 6: 7.82; 7: 7.92

###

Assay: Cytotoxicity against human MT4 cells expressing CD4 and CXCR4
Format: cell-based
assayMetric: CC50 (µM)
One number for each entry, in µM.

>>> print(df.to_string())
                                   compound  recordedresult
0  NCc1cc(C(=O)O)ccc1CN(Cc1nc2ccccc2[nH]1)C1CCCc2cccnc21 (stereo unspecified)             137
1  COc1ccc(CN(Cc2nc3ccccc3[nH]2)C2CCCc3cccnc32)c(CN)c1 (stereo unspecified)            36.5
2  COC(=O)c1ccc(CN(Cc2nc3ccccc3[nH]2)C2CCCc3cccnc32)c(CN)c1 (stereo unspecified)            42.2
3  NCc1nccnc1CN(Cc1nc2ccccc2[nH]1)C1CCCc2cccnc21 (stereo unspecified)             6.1

Provide the reported CC50 of each entry below, same order.
1. NCc1ccc(CN(Cc2nc3ccccc3[nH]2)C2CCCc3cccnc32)c(CN)c1 (stereo unspecified)
2. NCc1ocnc1CN(Cc1nc2ccccc2[nH]1)C1CCCc2cccnc21 (stereo unspecified)

1: 122; 2: 32.9

###

System: Human immunodeficiency virus 1
Experiment: Antiviral activity against X4 tropic HIV1 NL4.3 infected in human MT4 cells expressing CD4 and CXCR4 assessed as inhibition of virus-induced cytopathicity
Type: functional, organism-based
Details: Human immunodeficiency virus 1, NL4.3, MT4
For each of the molecules below, state its IC50.
Give bare numbers, in nM.

Some solved cases for reference:
                                   molecule  outputunit  recordedresult
0  COC(=O)c1ccc(CN(Cc2nc3ccccc3[nH]2)C2CCCc3cccnc32)c(CN)c1 (stereo unspecified)          nM             105
1  NCc1ncoc1CN(Cc1nc2ccccc2[nH]1)C1CCCc2cccnc21 (stereo unspecified)          nM             7.2
2  COc1ccc(CN(Cc2nc3ccccc3[nH]2)C2CCCc3cccnc32)c(CN)c1 (stereo unspecified)          nM              18

Would you mind listing IC50 for each of the following molecules?
1. NCc1sccc1CN(Cc1nc2ccccc2[nH]1)C1CCCc2cccnc21 (stereo unspecified)
2. NCc1cc(F)ccc1CN(Cc1nc2ccccc2[nH]1)C1CCCc2cccnc21 (stereo unspecified)

1. 14
2. 165
